Where do these numbers come from? They come from patent US9670204B2.

molecular target: hENPP2 (UniProtKB/SwissProt Q13822) (Homo sapiens (Human), UniProt Q13822); assay: hENPP2 biochemical assay, LPC as substrate; settings: LPC (palmitoyl 16:0) as substrate
READOUT LABEL: IC50

Examples with answers:
| COMPOUND | IC50 |
| --- | --- |
| CCc1nc2ccc(C3=CN(S(C)(=O)=O)CCC3)cn2c1N(C)c1nc(-c2ccc(Cl)cc2)cs1 | > 1000 nM |
| CCc1nc2ccc(C3CCN(C(=O)CN4CC(F)C4)CC3)cn2c1N(C)c1nc(-c2ccc(F)cc2)cs1 | 100 to 500 nM |
| CCc1nc2ccc(C3CCN(S(C)(=O)=O)CC3)cn2c1N(C)c1nc(-c2ccc(F)cc2)c(CC#N)s1 | > 1000 nM |
| CCc1nc2ccc(N3CCN(C(=O)C4CCCN4C(=O)OC(C)(C)C)CC3)cn2c1N(C)c1nc(-c2ccc(F)cc2)cs1 (stereo not drawn) | > 1000 nM |
| CCc1nc2ccc(N3CCN(Cc4ncon4)CC3)cn2c1N(C)c1nc(-c2ccc(F)cc2)cs1 | > 1000 nM |
| CCc1nc2ccc(N3CCN(Cc4ncc[nH]4)CC3)cn2c1N(C)c1nc(-c2ccc(F)cc2)cs1 | > 1000 nM |

Give recorded IC50. "CCc1nc2ccc(N3CCN(C(=O)OCCO)CC3)cn2c1N(C)c1nc(-c2ccc(F)cc2)cs1"
> 1000 nM

Give recorded IC50. "CCc1nc2ccc(C3CCN(S(C)(=O)=O)CC3)cn2c1N(C)c1nc(-c2ccc(F)cc2)c(C(C)=O)s1"
100 to 500 nM

Give recorded IC50. "CCc1nc2ccc(C3CCN(C4CN(C(C)=O)C4)CC3)cn2c1N(C)c1nc(-c2ccc(F)cc2)cs1"
500 to 1000 nM
